format: physicochemical; settings: 40° C. and 75% RH, day 7
Structures can show the parent of a compound that is named as a salt.
Consider the following compounds; for each one, report its TGA.
Answers are plain numbers, in %.

The examples below pair each entry with its known result.
COc1cccc2[nH]c3c4c(c5c(c3c12)C(=O)N(CN1CCN(C)CC1)C5=O)CCC4 [Glycolate Salt Hydrate, Form A1]: 2.3
COc1cccc2[nH]c3c4c(c5c(c3c12)C(=O)N(CN1CCN(C)CC1)C5=O)CCC4 [Acetate Salt, Form A1.5]: 20.0
COc1cccc2[nH]c3c4c(c5c(c3c12)C(=O)N(CN1CCN(C)CC1)C5=O)CCC4.O=C1CC[C@@H](C(=O)O)N1: 0.54

Consider the additional compound presented here.
Record COc1cccc2[nH]c3c4c(c5c(c3c12)C(=O)N(CN1CCN(C)CC1)C5=O)CCC4 [L-Malate Salt, Form A1] . Reported TGA: 0.2
